Attribute: composite z-score
# ASSAY_NOTES: compound binding in COS7 lysate, probe aLAP1, primary screen, cell lysate, small-molecule microarray (AID 1124);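 note: lysate comes from COS7 cells expressing LAP1 and is applied at 0.3 µg/mL; score merges spot fluorescence near 667 nm with signal-to-noise over triplicate slides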
# EXPERIMENTAL_SETUP: probe aLAP1, fluorescence, higher = more signal

[
  {
    "COMPOUND": "COc1ccccc1CN1C(=O)c2ccccc2[C@](Cc2ccccc2I)(C(=O)NC(C)C)[C@@H]1c1ccc(CO)cc1",
    "composite z-score": 0.226
  },
  {
    "COMPOUND": "CCOC(=O)C[C@H]1[C@H](OC(=O)Cc2ccc3c(c2)OCO3)[C@@H](NC(=O)C2CCCCC2)c2cc(OCCCO)ccc2N1C(=O)c1ccc2ccccc2n1",
    "composite z-score": 0.15
  },
  {
    "COMPOUND": "COCCCNC(=O)[C@]1(Cc2ccccc2N=[N+]=[N-])N=C(c2ccc(OCCCO)cc2)O[C@@H]1c1ccccc1N=[N+]=[N-]",
    "composite z-score": -0.0886
  },
  {
    "COMPOUND": "CO[C@H]1O[C@H](CO)[C@@H](OC(=O)Nc2ccccc2-c2ccccc2)[C@H](OC(=O)Nc2ccc3c(c2)OCO3)[C@@H]1OC(=O)Nc1ccc2c(c1)OCO2",
    "composite z-score": 0.335
  },
  {
    "COMPOUND": "[N-]=[N+]=NCc1ccccc1C[C@]1(C(=O)NCC(O)CO)N=C(c2ccc(OCCCO)cc2)O[C@H]1c1ccccc1CN=[N+]=[N-] (some centres not stated)",
    "composite z-score": 0.137
  },
  {
    "COMPOUND": "CC(C)(C)OC(=O)CC[C@]1(C(=O)O)N=C(c2ccc(OCCCO)cc2)O[C@H]1c1ccccc1CN=[N+]=[N-]",
    "composite z-score": 0.383
  },
  {
    "COMPOUND": "NCCCCCCNC(=O)[C@@H]1C[C@@H]2C(=O)N3CCC[C@H]3C(=O)N2[C@@H]1c1ccc(O)cc1",
    "composite z-score": 0.81
  }
]

----------
# Tested on: PRMT1 (protein arginine N-methyltransferase 1)
# ASSAY_NOTES: PRMT1 binders on small-molecule microarrays, primary screen, biochemical, small-molecule microarray, 635 nm fluorescence (AID 1088);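 note: binding of Prmt1 protein to compounds spotted on small-molecule microarray slides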
# EXPERIMENTAL_SETUP: small-molecule microarray binding, higher = more signal
Cut-off 0.8 on composite z-score, inclusive. At or above means Met; below means Not met.

[
  {
    "MOLECULE": "C=CCN1C(=O)[C@@]2(O[C@@H](CCO)[C@H]([Si](C)(C)c3ccc(OC)cc3)[C@H]2C)c2cc(N3C(=O)c4ccccc4Oc4ccccc43)ccc21",
    "LABEL": "Not met"
  },
  {
    "MOLECULE": "C=CCOC(=O)[C@H]1[C@@H]2C(=O)O[C@@H](c3ccccc3)[C@@H](c3ccccc3)N2[C@@H](c2ccc(OCCOC(=O)[C@H]3C[C@H]4C(=O)N[C@@H](CCCC[N+](C)(C)C)C(=O)N4[C@H]3c3cccc(OCCO)c3)cc2)[C@]12C(=O)Nc1ccc(I)cc12",
    "LABEL": "Met"
  },
  {
    "MOLECULE": "COCCCNC(=O)[C@]1(Cc2ccccc2CN=[N+]=[N-])N=C(c2ccc(OCCCO)cc2)O[C@@H]1c1ccccc1",
    "LABEL": "Met"
  },
  {
    "MOLECULE": "CC=CC(O)C1C=CC2C(=O)N(c3ccccc3)C(=O)C2N1Nc1ccc([N+](=O)[O-])cc1 (centres undefined)",
    "LABEL": "Not met"
  },
  {
    "MOLECULE": "Cc1c(NC(=O)/C(C#N)=C/C=C/c2ccccc2[N+](=O)[O-])c(=O)n(-c2ccccc2)n1C",
    "LABEL": "Not met"
  },
  {
    "MOLECULE": "C[C@H]1ON(c2ccc(C(=O)OC(C)(C)C)cc2)[C@@H](c2ccc(O)cc2)[C@@H]1C(=O)N1C(=O)OC[C@@H]1c1ccccc1",
    "LABEL": "Met"
  },
  {
    "MOLECULE": "CC[C@@H]1[C@H]2C3C(=O)N(CC)C(=O)C3CC(=O)[C@H]2[C@H](c2ccc(C)cc2)N1S(=O)(=O)c1ccc(C)cc1 (some centres undefined)",
    "LABEL": "Met"
  },
  {
    "MOLECULE": "Cc1ccc(C(C)CC(O)C2C=CC3C(=O)N(c4ccccc4)C(=O)C3N2Nc2ccc(C(C)C)cc2)o1 (centres undefined)",
    "LABEL": "Met"
  },
  {
    "MOLECULE": "O=c1cccc(-c2ccc(C(F)(F)F)cc2)o1",
    "LABEL": "Not met"
  },
  {
    "MOLECULE": "O=C1O[C@@H](c2ccccc2)[C@@H](c2ccccc2)N2[C@@H](c3ccc(O)cc3)[C@]3(C(=O)Nc4ccc(C#CCCO)cc43)[C@@H](C(=O)NC[C@H](O)c3ccccc3)[C@H]12",
    "LABEL": "Not met"
  },
  {
    "MOLECULE": "Cc1ccc(F)cc1S(=O)(=O)N[C@@H]1CCN(Cc2ccc(OC(C)C)cc2)C1",
    "LABEL": "Not met"
  },
  {
    "MOLECULE": "CCCC[C@@H]1C[C@H]1[C@@H](NC(=O)c1ccccc1)c1ccc(Cl)cc1",
    "LABEL": "Not met"
  },
  {
    "MOLECULE": "C=CCC(OC(C)=O)[C@@H]1[C@@H](N(Cc2cc3ccccc3o2)C(=O)c2ccc(C)cc2)c2cc(OCCCO)ccc2N1C(=O)Cc1ccc2ccccc2c1 (some centres undefined)",
    "LABEL": "Not met"
  }
]
